# Target desc: Lysine-specific demethylase 4A (Homo sapiens)
# Experiment description: qHTS Assay for Inhibitors of JMJD2A-Tudor Domain; also: nearly all actives have a fitted effect of over 50% in size; also: potency is read from the fitted curve at half-maximal effect
# Run parameters: AlphaScreen JMJD2A-Tudor / H3K4me3 peptide binding; series mostly up to 114 µM
About 17,000 (4.4%) of roughly 390,000 compounds were called active. Not shown: some 8% with an inconclusive outcome. The full list was thinned out, with actives kept by preference.
Assay endpoint: Potency

INSERT INTO assay_data (compound, result) VALUES
  ('CN(C)c1ccc(C(CC(=O)O)C(=O)O)cc1 (stereo unspecified)', 'inactive'),
  ('C#CC(CCN1CCCCC1)(OC)c1ccccc1 (stereo unspecified)', 'inactive'),
  ('CC(CN1CCOCC1)c1ccccc1 (stereo unspecified)', 'inactive'),
  ('CC(C)(C)N(CC#CCC(O)(c1ccccc1)C1CCCC1)CCO (stereo unspecified)', '50.1 µM (active)'),
  ('CC(CN1CCC(n2nccc2NC(=O)C2CCCC2)CC1)c1ccccc1 (stereo unspecified)', 'inactive'),
  ('CCCCOc1ccc(C(C)(O)CCN2CCOCC2)cc1 (stereo unspecified)', 'inactive');

====

# Target desc: Lysine-specific demethylase 4A (Homo sapiens) (UniProt O75164)
# Sequence (O75164 whole entry, looked up, the tested form may be a part): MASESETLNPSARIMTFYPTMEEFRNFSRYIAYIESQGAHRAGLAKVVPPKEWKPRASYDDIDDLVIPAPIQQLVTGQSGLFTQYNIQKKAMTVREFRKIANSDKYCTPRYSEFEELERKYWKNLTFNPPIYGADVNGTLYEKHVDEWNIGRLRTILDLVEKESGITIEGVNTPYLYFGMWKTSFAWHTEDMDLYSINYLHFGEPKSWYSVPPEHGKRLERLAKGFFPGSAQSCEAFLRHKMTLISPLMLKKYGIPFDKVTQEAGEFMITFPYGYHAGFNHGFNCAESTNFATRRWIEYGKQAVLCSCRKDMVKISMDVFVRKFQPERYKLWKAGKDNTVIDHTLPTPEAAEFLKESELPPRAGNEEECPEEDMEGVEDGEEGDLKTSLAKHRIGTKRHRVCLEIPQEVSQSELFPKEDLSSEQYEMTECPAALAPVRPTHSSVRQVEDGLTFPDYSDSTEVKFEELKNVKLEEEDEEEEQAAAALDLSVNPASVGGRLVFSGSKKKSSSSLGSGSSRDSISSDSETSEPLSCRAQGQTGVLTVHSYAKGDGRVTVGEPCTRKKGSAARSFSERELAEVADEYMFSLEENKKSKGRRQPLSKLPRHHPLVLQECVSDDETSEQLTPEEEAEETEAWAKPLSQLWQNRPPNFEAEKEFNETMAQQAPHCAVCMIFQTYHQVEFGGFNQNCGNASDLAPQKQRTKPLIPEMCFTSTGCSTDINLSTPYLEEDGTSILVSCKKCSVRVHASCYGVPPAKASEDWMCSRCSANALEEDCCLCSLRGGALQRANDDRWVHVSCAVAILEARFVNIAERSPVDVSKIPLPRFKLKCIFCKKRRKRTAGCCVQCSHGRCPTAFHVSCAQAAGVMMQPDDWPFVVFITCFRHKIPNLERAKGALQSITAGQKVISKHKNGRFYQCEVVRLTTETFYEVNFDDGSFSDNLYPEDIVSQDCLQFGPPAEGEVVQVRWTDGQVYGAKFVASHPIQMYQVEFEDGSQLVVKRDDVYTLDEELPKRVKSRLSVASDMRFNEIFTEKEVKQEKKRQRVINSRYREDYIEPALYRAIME
# Experiment description: qHTS Assay for Inhibitors of JMJD2A-Tudor Domain; also: nearly all actives have a fitted effect of over 50% in size
# Run parameters: AlphaScreen JMJD2A-Tudor / H3K4me3 peptide binding; series mostly up to 114 µM
# Source text: JMJD2A is a jumonji-domain-containing lysine demethylase that uses Fe(II) together with 2-OG to effect oxidative demethylation of histones. Methylation is one of many […] modification that affect epigenetic transcription. […] A quantitative high throughput AlphaScreen has been developed to identify small molecule inhibitors based on a protocol published by NCGC and SGC [4]. […] [2] Yasgar, et al. Compound Management for Quantitative High-Throughput Screening. […]
Among all 390,000 compounds or so, about 17,000 (4.4%) were called active. Roughly 8% stayed inconclusive and do not appear here. Calls follow the shape of the dose curve; as a rule, active = well fitted inhibition curve with a large enough effect; inconclusive = small, poorly fitted or top-dose-only effect; inactive = no such curve, though single readings can be large or run the other way. Many of the other results were omitted from the sample, so actives are more common in it than they were.
Classes used: 1 for active, -1 for inactive

INSERT INTO results (compound, class_label) VALUES
  ('O=C(Nc1ccccc1[N+](=O)[O-])C1C(c2ccccc2)=C1c1ccccc1', -1),
  ('Cc1ccccc1CSc1nnc(-c2cccnc2)n1N', -1),
  ('O=C(CCC1N=C2c3ccccc3N=C(SCc3ccccc3F)N2C1=O)NCCc1ccccc1 (centres undefined)', -1),
  ('O=C(Nc1ccc(S(=O)(=O)N2CCCCC2)cc1)C1CC(=O)N(c2ccc(F)cc2)C1 (centres undefined)', -1),
  ('CCN(CCCNC(=O)c1c(C)oc2ncn(CC(C)C)c(=O)c12)Cc1ccccc1', -1),
  ('COc1cccc2c1cc1c(=O)n(CC(=O)N3CCN(c4cccc(Cl)c4)CC3)nc(C)n12', -1),
  ('Cc1ccc(NC(=S)N(CCCN2CCC(C)CC2)Cc2ccco2)cc1', -1),
  ('CCOCCCNC(=O)c1ccc2nc(CCc3ccccc3)oc2c1', -1),
  ('O=C(CSc1ncc(CO)n1Cc1ccc(Cl)cc1)NCc1ccc(F)cc1', -1),
  ('CC(=O)NC1CCN(CC(=O)Nc2nccs2)CC1', 1),
  ('CCOc1ccc(CNC(=O)C2CCCN(S(=O)(=O)N(CC)c3ccc(OCC)cc3)C2)cc1 (centres undefined)', -1),
  ('CC1C(=O)N(Cc2ccccc2)c2ccccc2N1C(=O)c1ccccc1 (centres undefined)', -1),
  ('CC(C)(C)OC(=O)N1CCC(c2c(C(=O)NCc3ccccn3)cnn2-c2ccc(F)cc2)CC1', -1),
  ('CNC(=O)N1c2ccccc2C=Cc2ccccc21', -1),
  ('CCCCC(CC)CNCc1cccn1CCN1CCOCC1 (centres undefined)', 1),
  ('CN(C)c1ccc(C2N(C)C(=O)c3ccccc3N2C)cc1 (centres undefined)', -1),
  ('Cc1ccc(Cl)cc1N1CCN(C(=O)CN2C(=O)COc3ccc(S(=O)(=O)N4CCOCC4)cc32)CC1', -1),
  ('O=C(NCCNc1ccccc1[N+](=O)[O-])c1ccccc1F', -1),
  ('Nc1ccc(N=Nc2ccccc2Cl)c(N)n1', 1),
  ('CN(C)c1ccc(Nc2c3c4c(cccc4n(C)c2=O)C(=O)c2ccccc2-3)cc1', 1),
  ('O=C(CSc1nc(-c2ccccc2)cs1)Nc1cccc([N+](=O)[O-])c1', -1),
  ('Cc1ccc(-n2ncc3c(=O)n(Cc4cccc(C(F)(F)F)c4)cnc32)cc1C', -1),
  ('COc1ccc(-c2nc3sc(CCNC(=O)C(C)(C)C)c(C)n3n2)cc1', -1),
  ('Cc1ccc(S(=O)(=O)N2CCC(N3CCCCCC3)CC2)cc1', 1),
  ('CSc1ccc(CNCCN2CCOCC2)cc1', -1),
  ('Cc1ccc(NC(=O)C2CCCN2C(=O)OCc2ccccc2)cc1C (centres undefined)', -1),
  ('O=c1cc(CO)oc(C(Nc2cccc(C(F)(F)F)c2)c2ccccn2)c1O (centres undefined)', 1),
  ('CCS(=O)(=O)N1CCc2cc(C(=O)NCc3ccc(C)cc3)ccc21', -1),
  ('Cc1c(NC(=O)Cc2ccccc2)cccc1-c1nc2cccnc2s1', -1);
